Every entry's value here was drawn from patent US6890361B2.

# PROTOCOL_DETAILS: UV-vis absorbance of disperse dyes dissolved in acetone (reference)
# Format: physicochemical
# PARTICULARS: dye concentration 50 mg/l
READOUT_TYPE: Abs@λ max
Give the figure by itself; no unit, no explanation.

Return reported Abs@λ max; argument: CCC(=O)Nc1cc(N(CCOC(C)=O)CCOC(C)=O)ccc1N=Nc1ccc([N+](=O)[O-])cc1Cl 1.23
